# assay.explanation: chemical genetic growth profiling, strain panel (AID 1159580);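 also: tested at 20 µM; growth read once vehicle control cultures reached saturation at 30 °C; 1 = growth at the plate median or of vehicle wells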
# study.conditions: S. cerevisiae deletion strains, growth OD, locus YPR167C, strain met16
The whole screen tested about 5,500 compounds, of which about 2,000 (36%) were called active. About 18% were inconclusive and are not listed. Rule as the data show it: active = normalized growth mostly below about 0.91 (no sharp cut-off); inconclusive = no clear call, values can overlap the other calls; inactive = mostly above about 0.92. The list shows a part of the results.
Just give me one of these, please: True for active, False for inactive

Req: Given CCOC([O-])=Nc1c[n+](N2CCOCC2)no1 , state the outcome it received in this test.
Resp: False

Req: Could you please tell me the result logged for CN1CCN(CCCN2c3ccccc3Sc3ccc(C(F)(F)F)cc32)CC1 in this assay?
Resp: True

Req: Fill in: this test's call for CC1(C)C=Cc2cc3ccc(=O)oc3cc2O1 is ___
Resp: False

Req: In this assay, the call recorded for OC(c1cc(C(F)(F)F)nc2c(C(F)(F)F)cccc12)C1CCCCN1 (stereo unspecified) was what?
Resp: False

Req: Just curious, what result did CC1=NN(c2ccccc2)C(=O)C1 get here?
Resp: False

Req: # lookup: test call for CC1(C)C(=O)[C@@H]2C[C@@]3(O)C4=CC(=O)O[C@@H](c5ccoc5)[C@]4(C)CCC3[C@@](C)(C2=O)[C@H]1CC(=O)O (stereo partly specified)
Resp: False

Req: Assay result, entry CC(=O)OCC(=O)[C@@]12OC3(CCCC3)O[C@@H]1CC1C3CCC4=CC(=O)C=C[C@]4(C)[C@@]3(F)[C@@H](O)C[C@@]12C (stereo partly specified) — outcome?
Resp: False

Req: Check the results log: what was the call for O=C(O)c1cc(=O)c2c(Cl)cc(Cl)cc2[nH]1 ?
Resp: False

Req: Hi, sorry to bother you, what did the test record for OCCN1CCN(CCCN2c3ccccc3Sc3ccc(C(F)(F)F)cc32)CC1 ?
Resp: False

Req: Hey, what did the test say about COC(=O)[C@]1(C)CC[C@]2(C)CC[C@]3(C)C4=CC=C5C(=CC(=O)C(O)=C5C)[C@]4(C)CC[C@@]3(C)[C@@H]2C1 ?
Resp: True

Req: Each molecule tested received a call. Report the one for COP(=O)(OC)OC(Br)C(Cl)(Cl)Br (stereo unspecified) .
Resp: False

Req: What was the test verdict on CC(NCCC(c1ccccc1)c1ccccc1)c1ccccc1 (stereo unspecified) ?
Resp: False

Req: Which outcome was entered for the molecule CC(=O)Oc1cc2c(c(C)c1OC(C)=O)CC1OC13C2(C)CCC1(C)C2CC(C)(C(=O)O)CCC2(C)CCC13C (stereo unspecified) in this test?
Resp: False

Req: Record request — test call for COc1cc2cc3c4cc(OC)c(OC)cc4cc[n+]3c(C)c2cc1OC
Resp: False

Req: # fetch the recorded call for COc1cc2c(cc1OC)[C@@H]1C(=O)c3ccc4c(c3O[C@@H]1CO2)CC(C(C)C)O4 (stereo partly specified) here
Resp: False

Req: Hi team, can someone confirm the assay call for CN(C)CCc1c[nH]c2ccc(CS(=O)(=O)N3CCCC3)cc12 ?
Resp: False

* * *

# assay.explanation: chemical genetic growth profiling, strain panel (AID 1159580)
# study.conditions: S. cerevisiae deletion strains, growth OD, locus YBR009C, strain hhf1, stronger effect = lower value
The campaign covered roughly 5,500 compounds. About 2,000 (36%) were called active. Inconclusive results (about 18%) are left out. This is one part of the list.
readout.type: normalized growth
Answer with the value's number alone.

Req: normalized growth lookup needed for COc1ccc(C2C(=O)c3ccccc3C2=O)cc1 , thanks.
Resp: 0.998

Req: Quick one: normalized growth for COc1cc(-c2oc3cc(O)ccc3c(=O)c2O)ccc1O ?
Resp: 0.925

Req: I'd like to know its normalized growth. The molecule in question is NC1C[C@H]1c1ccccc1 (some centres undefined)
Resp: 1

Req: Fill blank: measured normalized growth of the molecule CCc1cccc2c3c([nH]c12)C(CC)(CC(=O)O)OCC3 (centres undefined) is ____.
Resp: 1

* * *

# assay.explanation: chemical genetic growth profiling, strain panel (AID 1159580);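 also: tested at 20 µM; growth read once vehicle control cultures reached saturation at 30 °C; 1 = growth at the plate median or of vehicle wells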
# study.conditions: S. cerevisiae deletion strains, growth OD, locus YDR069C, strain doa4
Hit rate of the full screen: of about 5,500 compounds, about 2,000 (36%) were called active. Not shown: some 18% with an inconclusive outcome. No stated cut-off is given here; in the data, active means normalized growth mostly below about 0.91 (no sharp cut-off); inconclusive means no clear call, values can overlap the other calls; inactive means mostly above about 0.92. This is one part of the list.
Answer with one of the outcomes given here: 1 (active), 0 (inactive)

Req: Dear all, I need the recorded test outcome for CC(=O)OCC1=C(C(=O)O)N2C(=O)[C@@H](NC(=O)CCCC(N)C(=O)O)C2SC1 (stereo partly drawn) , thank you.
Resp: 0

Req: Please let me know the test result on file for C=C(C)[C@H]1Cc2c(ccc3c2O[C@@H]2COc4cc(OC)c(OC)cc4[C@@H]2C3=O)O1 .
Resp: 0

Req: Record request — test call for O=C(NC1CCCCC1)NC1CCCCC1
Resp: 0

Req: Which result was noted for this compound in the test: O=C(O)c1cc(=O)c2c(Cl)cc(Cl)cc2[nH]1
Resp: 0

Req: Hey, what did the test say about CC1=NN(c2ccccc2)C(=O)C1 ?
Resp: 0

Req: Please share the test call associated with O=C(OC[C@H]1O[C@H](OC(=O)c2cc(O)c(O)c(OC(=O)c3cc(O)c(O)c(O)c3)c2)[C@H](OC(=O)c2cc(O)c(O)c(OC(=O)c3cc(O)c(O)c(O)c3)c2)[C@@H](OC(=O)c2cc(O)c(O)c(OC(=O)c3cc(O)c(O)c(O)c3)c2)[C@@H]1OC(=O)c1cc(O)c(O)c(OC(=O)c2cc(O)c(O)c(O)c2)c1)c1cc(O)c(O)c(OC(=O)c2cc(O)c(O)c(O)c2)c1 .
Resp: 1

Req: Hi, do you know how NCCNCCNCCN came out in this test?
Resp: 0

Req: Hi team, can someone confirm the assay call for COc1ccc(C2C(=O)c3ccccc3C2=O)cc1 ?
Resp: 0

* * *

# assay.explanation: chemical genetic growth profiling, strain panel (AID 1159580);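 also: tested at 20 µM; growth read once vehicle control cultures reached saturation at 30 °C; 1 = growth at the plate median or of vehicle wells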
# study.conditions: S. cerevisiae deletion strains, growth OD, locus YHR013C, strain ard1, stronger effect = lower value
The whole screen tested about 5,500 compounds, of which about 2,000 (36%) were called active. Inconclusive results (about 18%) are left out. Some of the results follow. Where a SMILES comes first, the peptide text is derived from it. Bridges are numbered along the chain shown (N, C = ends). [ ]: non-standard residue; d: D form. The star is where a group is joined. Octanoyl(6-Me) = CCC(C)CCCCC(=O)*; Dab = NCC[CH](N)C(=O)O
readout.type: normalized growth
Output: the number by itself.

Req: Can you share its normalized growth? I mean this compound: NC[C@H]1O[C@H](O[C@H]2C(O[C@@H]3O[C@H](CO)[C@@H](O)[C@H]3O)[C@@H](O)[C@H](N)C[C@@H]2N)[C@H](N)[C@@H](O)[C@@H]1O (stereo partly specified)
Resp: 0.976

Req: Looking for the measured normalized growth of C=C(C)[C@H]1Cc2c(ccc3c2O[C@@H]2COc4cc(OC)c(OC)cc4[C@@H]2C3=O)O1 , can you help?
Resp: 1

Req: // normalized growth lookup, key: OCCN1CCN(CCCN2c3ccccc3Sc3ccc(C(F)(F)F)cc32)CC1
Resp: 1

Req: Query (compound): CCC(C)CCCCC(=O)NC(CCN)C(=O)NC(C(=O)NC(CCN)C(=O)NC1CCNC(=O)C(C(C)O)NC(=O)C(CCN)NC(=O)C(CCN)NC(=O)C(CC(C)C)NC(=O)C(Cc2ccccc2)NC(=O)C(CCN)NC1=O)C(C)O (stereo unspecified) ({Octanoyl(6-Me)}-[Dab]T[Dab][Dab][Dab]FL[Dab][Dab]T; lactam 4-C; configuration not given here) ; field requested: normalized growth
Resp: 0.901

Req: Query: normalized growth; subject: COc1cc2cc3c4cc(OC)c(OC)cc4cc[n+]3c(C)c2cc1OC
Resp: 1.01

Req: normalized growth for CN1CCN(CCCN2c3ccccc3Sc3ccc(C(F)(F)F)cc32)CC1 ?
Resp: 0.169

* * *

# assay.explanation: chemical genetic growth profiling, strain panel (AID 1159580);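 also: tested at 20 µM; growth read once vehicle control cultures reached saturation at 30 °C; 1 = growth at the plate median or of vehicle wells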
# study.conditions: S. cerevisiae deletion strains, growth OD, locus YOL147C, strain pex11
The campaign covered roughly 5,500 compounds. About 2,000 (36%) were called active. Not shown: some 18% with an inconclusive outcome. Cut-off read from the data, not from the text of the source: active = normalized growth mostly below about 0.91 (no sharp cut-off); inconclusive = no clear call, values can overlap the other calls; inactive = mostly above about 0.92. This is one part of the list.
Choose one outcome from this list and give only that: active, inactive

Req: Recorded test outcome, item CC(=O)O[C@H]1CC[C@]2(C)C3CC[C@@]4(C)C(CC5O[C@@]6(CCC(C)CO6)[C@@H](C)C54)C3CC[C@@H]2C1 (stereo partly drawn)
Resp: inactive

Req: Answer briefly: the call reported for CC(=O)OC1CCC2(C)C3CC(=O)C4(C)C(CC5OC6(CCC(C)CO6)[C@@H](C)C54)C3CC[C@H]2C1 (stereo partly drawn) in this assay.
Resp: inactive

Req: Lab log entry: O=c1oc2c(O)c(O)cc3c(=O)oc4c(O)c(O)cc1c4c23 — outcome as called in the assay?
Resp: active

Req: Record request — test call for CC(=O)O[C@H]1CC[C@]2(C)C3CC(=O)[C@]4(C)C(C(C)=O)=CCC4C3CC[C@H]2C1 (stereo partly drawn)
Resp: inactive

Req: Kindly provide the recorded test outcome for the following compound: CC(=O)O[C@H]1CC[C@]2(C)C3CC[C@@]4(C)C(CC5O[C@@]6(CCC(C)CO6)[C@@H](C)C54)C3CC[C@H]2C1 (stereo partly drawn)
Resp: inactive

Req: Tell me the recorded outcome of this test for CC(=O)OCC(=O)[C@@]1(O)CCC2C3CC[C@@H]4C[C@H](OC(C)=O)CC[C@]4(C)C3C(=O)C[C@@]21C (stereo partly drawn) .
Resp: inactive

Req: For this compound, state the assay outcome: CC(=O)O[C@@H]1CC[C@]2(C)C3CC[C@]4(C)C(=O)CCC4C3CC[C@H]2C1 (stereo partly drawn)
Resp: active

Req: What did this assay record as the result for CN1C(=O)CCS(=O)(=O)C1c1ccc(Cl)cc1 (stereo not drawn) ?
Resp: inactive
